assay: collision cross section of modified peptide (TIMS, N2, iRT-aligned); higher = larger / more extended gas-phase ion; conditions: charge state: 2; modification: Butyryl
± gives the standard deviation.
// collision cross section lookup, one value per entry
Record the result as number plus unit.

- entrySequence: "IPQEKCILQTDVK [_IPQEK(Butyryl)CILQTDVK_]"
  collision cross section: "436.84 ± 0.53 Å²"

Can you share its collision cross section? I mean this sequence: TPNLYIYSKK [_TPNLYIYSK(Butyryl)K_] 388.09 ± 0.85 Å²

Can you share its collision cross section? I mean this sequence: VSPASSVDSNIPSSQGYKK [_VSPASSVDSNIPSSQGYK(Butyryl)K_] 463.23 ± 2.7 Å²

---

test: collision cross section of unmodified peptide (TIMS, N2, iRT-aligned); higher = larger / more extended gas-phase ion; details: charge state: 3
endpointLabel: collision cross section (Å²)
Dear colleague, please return just the value in Å², with no unit written.

- entrySequence: "DTPTSAGPNSFNKGK"
  collision cross section (Å²): 465.77

Can you share its collision cross section? I mean this sequence: IHVQSSSDSSDEPAEKR 536.3

Can you share its collision cross section? I mean this sequence: SLKLNTAEDAK 469.12

---

test: collision cross section of modified peptide (TIMS, N2, iRT-aligned); higher = larger / more extended gas-phase ion; conditions: charge state: 3; modification: Malonyl
Lab note: compare collision cross section against 500 Å². Equal or greater, write 1 (yes). Smaller, write 0 (no).

Previously resolved entries follow.
- entrySequence: "AGQKLIDVNHYAK [_AGQK(Malonyl)LIDVNHYAK_]"
  group: "0 (no)"
- entrySequence: "DAEAAEATAEGALKAEK [_DAEAAEATAEGALK(Malonyl)AEK_]"
  group: "1 (yes)"
- entrySequence: "TQDQISNIKYHEEFEK [_TQDQISNIK(Malonyl)YHEEFEK_]"
  group: "1 (yes)"
- entrySequence: "VFIGNLNTLVVKKK [_VFIGNLNTLVVK(Malonyl)KK_]"
  group: "1 (yes)"

Check the entry ANLEKAQAELVGTADEATR [_ANLEK(Malonyl)AQAELVGTADEATR_] : does collision cross section equal or exceed 500 Å²? 1 (yes)

---

test: collision cross section of unmodified peptide (TIMS, N2, iRT-aligned); higher = larger / more extended gas-phase ion; conditions: charge state: 3
endpointLabel: collision cross section (Å²)
Dear colleague, please return just the value in Å², with no unit written.

Field: example entries. Status: answers known.
- entrySequence: "FDDTNPEKEEAK"
  unitName: "Å²"
  collision cross section: 501.37
- entrySequence: "IEDEQALGSQLQK"
  unitName: "Å²"
  collision cross section: 493.77
- entrySequence: "LTSLNVKYNNDK"
  unitName: "Å²"
  collision cross section: 487.29
- entrySequence: "LGVPGLPGYPGRQGPK"
  unitName: "Å²"
  collision cross section: 493.33
- entrySequence: "VYIASSSGSTAIKK"
  unitName: "Å²"
  collision cross section: 494.89

Can you share its collision cross section? I mean this sequence: GRGTGEAEEEYVGPR 491.56

Can you share its collision cross section? I mean this sequence: RGFGFGGFAISAGK 486.34

Can you share its collision cross section? I mean this sequence: SLIGKVDGTSHVTGK 491.82

Can you share its collision cross section? I mean this sequence: FPGVGVLPGVPTGAGVK 509.46

Can you share its collision cross section? I mean this sequence: TLHLSHLNRFPAR 511.92

// provenance: the supplement of paper PMC10598134
